# tgt: Arf-GAP with SH3 domain, ANK repeat and PH domain-containing protein 1 (Homo sapiens) (UniProt Q9ULH1)
# Sequence (Q9ULH1 325-724 limits assumed): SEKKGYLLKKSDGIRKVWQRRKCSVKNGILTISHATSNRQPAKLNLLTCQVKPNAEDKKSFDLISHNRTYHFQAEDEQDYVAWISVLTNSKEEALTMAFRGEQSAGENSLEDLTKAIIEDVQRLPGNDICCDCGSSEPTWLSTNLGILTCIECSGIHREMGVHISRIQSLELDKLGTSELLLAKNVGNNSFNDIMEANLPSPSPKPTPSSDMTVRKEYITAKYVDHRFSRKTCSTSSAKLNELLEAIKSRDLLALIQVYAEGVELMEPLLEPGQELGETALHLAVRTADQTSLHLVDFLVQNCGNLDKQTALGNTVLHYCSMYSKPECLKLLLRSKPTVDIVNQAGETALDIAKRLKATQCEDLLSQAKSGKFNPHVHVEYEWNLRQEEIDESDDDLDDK
# assay.name: inhibitors of human ASAP1 ArfGAP activity, primary screen, biochemical, fluorescence polarization (AID 624377);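 note: 0% = vehicle with enzyme and substrate and 100% = no enzyme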
# experimental.parameters: ASAP1-stimulated ARF1 GTP hydrolysis, GDP FP detection; at 16.5 µM; hits give high values
Hit rate of the full screen: of about 360,000 compounds, about 680 (0.19%) were called active. Only a selection was taken, and actives are over-represented in it overall.
readout.label: inhibition (%)
Write the answer as a number in %, unit excluded.

Worked cases, answers included:
Cc1ccc2nc(SCC(=O)Nc3cccc4ccccc34)nc(=O)n2c1    16.5
COC(=O)C1=C(C)N(Cc2ccccc2C(F)(F)F)C(=NCc2ccc(C(F)(F)F)cc2)NC1c1ccc(F)cc1 (stereo not given)    8.73
COC(=O)[C@]1(Cc2ccccc2)NC=C(C(=O)c2ccccc2)[C@@H]1c1cccc(OC)c1    -16.7
O=S1(=O)c2c(cccc2N2CCCC2)O[C@H](COCc2ccccc2)CN1C1CC1    -12.9
CC(C)CNc1cccc2c1S(=O)(=O)N[C@H](C)CO2    -1.48
COC(=O)[C@]12C[C@H](CC(=O)NCc3ccccc3)C(=O)N(CCC3=CCCCC3)C1=C[C@H](C(C)(C)C)O[C@@H]2C    -6.37
CCOC(=O)N1CCN(C(=O)C[C@H]2C[C@@]3(C(=O)OC)C(=C[C@H](C4CCCC4)O[C@@H]3C)N(Cc3ccccc3)C2=O)CC1    -6.46
COc1cc(Nc2nc3ccc(Cl)cc3n3cnnc23)cc(OC)c1OC    -7.78

Return reported inhibition. Input compound: COC(=O)C1=C(C)N(Cc2cccc(C(F)(F)F)c2)C(=NCc2ccccc2)NC1c1ccccc1C(F)(F)F (stereo not given)
11.8

Return reported inhibition. Input compound: COCc1[nH]nc2c1C(c1ccccc1)N(c1ccccc1)C2=O (stereo not given)
-1.83

Return reported inhibition. Input compound: Cc1nc(NC(=O)C(C)(C)C)sc1[N+](=O)[O-]
-0.12

Return reported inhibition. Input compound: C[C@H](O)[C@@H]1C(=O)N2CCc3c([nH]c4c(-c5ccc6c(c5)OCO6)cccc34)[C@@H]2C[C@@H]1N(C)C(=O)c1ccco1
-3.66

Return reported inhibition. Input compound: O=S(=O)(NCc1ccccc1)c1ccc(S(=O)(=O)N2CCCC2)cc1
16.8

---

Form field: inhibition (one value per entry).
# tgt: Arf-GAP with SH3 domain, ANK repeat and PH domain-containing protein 1 (Homo sapiens) (UniProt Q9ULH1)
# assay.name: inhibitors of human ASAP1 ArfGAP activity, primary screen, biochemical, fluorescence polarization (AID 624377);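 note: 0% = vehicle with enzyme and substrate and 100% = no enzyme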
# experimental.parameters: ASAP1-stimulated ARF1 GTP hydrolysis, GDP FP detection; at 16.5 µM; hits give high values
Out of some 360,000 compounds screened, about 680 (0.19%) were called active. Many of the other results were omitted from the sample, so actives are more common in it than they were.
Write the answer as a number in %, unit excluded.

Worked cases, answers included:
O=S1(=O)c2ccc(Br)cc2-n2nncc2CN1Cc1cccc(Cl)c1    -4.19
Nc1ccn([C@@H]2O[C@H](C(=O)N[C@H]3CCCCNC3=O)[C@@H](O)[C@H]2O)c(=O)n1    -4.12
O=C1C(Cl)=C(Oc2ccccc2)C(=O)c2ccccc21    -0.42
CC(=O)N(C1=C(Cl)C(=O)c2ccccc2C1=O)c1ccc(C(=O)O)cc1    29.4

Now let's try a different one.
Return reported inhibition. Input molecule: CCN(CC)c1ccc2cc(C(N)=O)/c(=N\NC(=O)c3ccncc3)oc2c1
26.4

---

# tgt: Arf-GAP with SH3 domain, ANK repeat and PH domain-containing protein 1 (Homo sapiens) (UniProt Q9ULH1)
# assay.name: inhibitors of human ASAP1 ArfGAP activity, primary screen, biochemical, fluorescence polarization (AID 624377);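 note: 0% = vehicle with enzyme and substrate and 100% = no enzyme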
# experimental.parameters: ASAP1-stimulated ARF1 GTP hydrolysis, GDP FP detection; at 16.5 µM
About 680 (0.19%) of roughly 360,000 compounds were called active. Cut-off read from the data, not from the text of the source: active = inhibition above about 25%; inactive = the rest. The entries come from a sample that favours actives as a whole.
Write down the outcome that applies. Available outcomes: t for active, f for inactive

Which outcome was assigned to COc1ccc(-c2ccc3c(n2)CCCN3S(=O)(=O)c2ccc(C)cc2)cc1 in this test?
f

Which outcome was assigned to COC(=O)C1=C(C)N(Cc2cccc(C(F)(F)F)c2)C(=NCc2ccccc2)NC1c1ccc(Cl)cc1 (stereo not given) in this test?
f

---

# tgt: Arf-GAP with SH3 domain, ANK repeat and PH domain-containing protein 1 (Homo sapiens) (UniProt Q9ULH1)
# assay.name: inhibitors of human ASAP1 ArfGAP activity, primary screen, biochemical, fluorescence polarization (AID 624377);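 note: 0% = vehicle with enzyme and substrate and 100% = no enzyme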
# experimental.parameters: ASAP1-stimulated ARF1 GTP hydrolysis, GDP FP detection; at 16.5 µM; hits give high values
The whole screen tested about 360,000 compounds, of which about 680 (0.19%) were called active. The entries come from a sample that favours actives as a whole.
readout.label: inhibition (%)
Write the answer as a number in %, unit excluded.

COc1ccc(-c2ccccc2C2Cc3nnccc3CN2C(=O)Nc2ccccc2)cc1 (stereo not given)    -1.04
Cc1cc(N2CCN(C(=O)OC(C)(C)C)C[C@H]2C)ccc1N1CCN(Cc2ccccc2)[C@H](C)C1    0.89
COC(=O)C1=C(C)N(Cc2cccc(C(F)(F)F)c2)C(=NCc2cccc(C(F)(F)F)c2)NC1c1ccccc1C(F)(F)F (stereo not given)    4.19
Cc1[nH]c2ccccc2c1CC(=O)Nc1ccc(Nc2cccnc2)c(-c2cccc(Cl)c2)c1    23.9
Cc1ccc2nc(-c3ccc(CN4CCC(n5cc(-c6ccccc6)[nH]c5=O)CC4)cc3)c(-c3ccccc3)nc2c1    9.24
O=C(NCc1ccccc1)[C@@H]1CCCN1C(=O)[C@@H](NS(=O)(=O)c1ccc(F)cc1F)C1CCCCC1    -1.92
C=CCC[C@@H](CCCCC)OC(=O)/C=C/[C@@H](O)[C@H](O)C[C@H](O)CC=C    26.7
C[C@H](CO)N1C[C@H](C)[C@@H](CN(C)C(=O)Nc2ccccc2F)OCc2cn(nn2)CCCC1=O    -10.4
CCCCCCCCN1C(=O)[C@@H](CC(=O)NCc2ccccc2)C[C@@]2(C(=O)OC)C1=C[C@H](C(C)(C)C)O[C@@H]2C    4.65
COC(=O)[C@]12C[C@H](CC(=O)NCc3ccc(OC)c(OC)c3)C(=O)N(Cc3ccccc3)C1=C[C@H](C(C)C)O[C@@H]2C1CC1    -17.1

Return reported inhibition. Input compound: COc1ccc(C2=CN(Cc3ccccc3)C(c3ccc(OC)cc3)CC2=O)cc1 (stereo not given)
12.3

Return reported inhibition. Input compound: COCc1cc(N2CCN(C(=O)OC(C)(C)C)C[C@@H]2C)ccc1N1CCN(Cc2ccccc2)[C@H](C)C1
-0.13

Return reported inhibition. Input compound: CCOC(=O)c1ccc(NC(=O)c2c(NCc3ccccc3)[nH]c(=O)[nH]c2=O)cc1
-2.85

Return reported inhibition. Input compound: COC(=O)c1ccc(NCC(=O)c2ccccc2)cc1
24.7

Return reported inhibition. Input compound: C=CCNc1nc(N)c(C(=C(C#N)C#N)c2ccccc2)s1
29.1

Return reported inhibition. Input compound: COc1cccc(CC(=O)N2CCN(C(=O)C(=O)c3cccc(C(F)(F)F)c3)CC2)c1
3.01

Return reported inhibition. Input compound: CC[C@H](NC(=O)[C@H](Cc1ccccc1)NC(=O)[C@H]1O[C@@H](n2cnc3c(=O)[nH]c(N)nc32)[C@H](O)[C@@H]1O)c1ccccc1
3.49

Return reported inhibition. Input compound: CCOC(=O)c1ccc(NC(=O)c2c(N)n(C)c(=O)[nH]c2=O)cc1
10.2

---

# tgt: Arf-GAP with SH3 domain, ANK repeat and PH domain-containing protein 1 (Homo sapiens)
# assay.name: inhibitors of human ASAP1 ArfGAP activity, primary screen, biochemical, fluorescence polarization (AID 624377);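 note: 0% = vehicle with enzyme and substrate and 100% = no enzyme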
# experimental.parameters: ASAP1-stimulated ARF1 GTP hydrolysis, GDP FP detection; at 16.5 µM; hits give high values
The whole screen tested about 360,000 compounds, of which about 680 (0.19%) were called active. The sample holds actives, similar compounds and a random draw of the others, so the mix is not that of the screen.
Decide using inhibition: a value greater than or equal to 10% is criterion met, a smaller one is criterion not met.

Worked examples, 6 compounds total:
COC(=O)[C@]12C[C@H](CC(=O)NCCC(C)C)C(=O)N(CCc3ccc(OC)c(OC)c3)C1=C[C@H](C(C)(C)C)O[C@@H]2C    criterion met
OCCNc1nc2ccccc2n1-c1ncnc2sc3c(c12)CCC3    criterion not met
CC1CCCN(c2cccc3c2S(=O)(=O)N(Cc2ccc(F)cc2)[C@@H](C)[C@H](c2ccccc2)O3)C1 (stereo partly drawn)    criterion not met
CC(=O)c1ccc(S(=O)(=O)NCC2CCN(C(=O)C(=O)c3cccs3)CC2)cc1    criterion not met
N#Cc1cc([N+](=O)[O-])ccc1Oc1cccc(/C=N/NC(=O)c2ccc(Cl)cc2)c1    criterion met
O=C(O)c1cccnc1Sc1ncnc2sc3c(c12)CCC3    criterion not met

Exam item: decide whether the reported inhibition for CCOC(=O)C1=C(C(=O)OCC)C2N(Cc3ccc(C#N)cc3)c3ccccc3[C@@]23C[C@@H](C(=O)OC)N(S(=O)(=O)c2ccc(F)cc2)C3=N1 (stereo partly drawn) is at least 10%.
criterion met

Exam item: decide whether the reported inhibition for C[C@@H]1ON(C)[C@H]2C[C@H]3c4cc(N5CCOCC5)ccc4CCN3C[C@@H]12 is at least 10%.
criterion met

Data credit: PubChem BioAssay AID624377
